Cited source for all entries: patent US10954214B2

Consider the following compounds; for each one, report its IC50.
tested on: TMD8 cells; assay: 4-day proliferation assay, TMD8; type: cell-based; settings: Homo sapiens, 96 h, 4 days incubation, CellTiterGLO, read-out: Anti-proliferation: TMD-8 IC50
One number for each entry, in µM.

Example results:
Task: If you can, please state the reported IC50 value of Cc1nc(-n2nccn2)c(C#N)cc1NC(=O)c1cnn(-c2cccc3nnsc23)c1C(F)(F)F .
Output: 1.86

Task: If you can, please state the reported IC50 value of CC(C)c1c(C(=O)Nc2cnc(-n3nccn3)c(Cl)c2)cnn1-c1cccc2ncccc12 .
Output: 8.71

// below: IC50 requested for another compound
Task: If you can, please state the reported IC50 value of N#Cc1cc(NC(=O)c2cnn(-c3ncnc4ccsc34)c2C(F)(F)F)cnc1-n1nccn1 .
Output: 6.76
